Quick reference for composite z-score among some compounds
targetSystem: Torsin-1A-interacting protein 2 (Homo sapiens)
measurementNotes: LULL1 binders on small-molecule microarray, primary screen, cell lysate, human LULL1 lysate, 635/667 nm fluorescence (AID 1092);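 note: score merges per-feature 667 nm fluorescence with signal-to-noise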
recordedConditions: hLULL1 lysate binding, 635 nm fluorescence, higher = more signal
readoutLabel: composite z-score

>>> recordedvalue("C#CCOc1ccc(C[C@H]2C(=O)O[C@H](Cc3ccccc3)[C@H](/C=C/C3CC3)N2CC#C)cc1")
0.408
>>> recordedvalue("COCCOC(=O)N1C(=O)[C@@]2(c3cc(C#CC4(O)CCCCCC4)ccc31)[C@H](C(=O)NC[C@H](O)c1ccccc1)[C@H]1C(=O)O[C@H](c3ccccc3)[C@H](c3ccccc3)N1[C@@H]2c1ccccc1OCCO")
2.69
>>> recordedvalue("COC(=O)C(CC#Cc1ccc2c(c1)[C@]1(C(=O)N2)[C@H](c2ccccc2OCCO)N2[C@H](c3ccccc3)[C@H](c3ccccc3)OC(=O)[C@H]2[C@@H]1C(=O)N1CCCCCCC1)C(=O)OC")
4.89
>>> recordedvalue("CC(C)NC(=O)[C@@H]1c2ccccc2C(=O)N(Cc2cc(F)cc(C(F)(F)F)c2)[C@H]1c1ccc(CO)cc1")
2.48
>>> recordedvalue("CC(C)N1C(=O)c2ccccc2[C@@H](C(=O)NCc2ccccc2)[C@@H]1c1ccc(CO)cc1")
0.979
>>> recordedvalue("C=CCC(OC(C)=O)[C@@H]1[C@@H](N(Cc2ccc(-c3ccccc3)cc2)C(=O)c2ccc(-c3ccccc3)cc2)c2cc(OCCCO)ccc2N1C(=O)c1ccc(-c2ccccc2)cc1 (some centres not stated)")
0.399
>>> recordedvalue("C=CCC(OC(C)=O)[C@@H]1[C@@H](N(Cc2cccc3ccccc23)C(=O)c2cccc3ccccc23)c2cc(OCCCO)ccc2N1C(=O)Cc1ccc(OC)cc1 (some centres not stated)")
1.52
>>> recordedvalue("CC(CO)N1C(=O)[C@@H]2C3C(=O)OCCC/C=C\\[C@H]3OC23C=CCN(Cc2ccccc2)C(=O)[C@@H]13 (some centres not stated)")
-0.0166
>>> recordedvalue("COC(=O)C(CC#Cc1ccc2c(c1)[C@]1(C(=O)N2)[C@H](C(N)=O)[C@H]2C(=O)O[C@H](c3ccccc3)[C@H](c3ccccc3)N2[C@@H]1c1ccc(O)cc1)C(=O)OC")
0.0509
>>> recordedvalue("COCCCN1C(=O)[C@@]2(Cc3ccccc31)c1ccccc1C(=O)N(Cc1ccccc1Cl)[C@H]2c1ccc(CO)cc1")
1.22
>>> recordedvalue("CC(C)CCC[C@@H](C)[C@H]1CC[C@@]2(C)C3=C(CC[C@]12C)[C@@]1(C)CC[C@H](OC(=O)CCl)C(C)(C)C1CC3 (some centres not stated)")
0.424
>>> recordedvalue("CCOC(=O)C[C@H]1[C@H](OC(=O)c2ccc(-c3ccccc3)cc2)[C@@H](NC(=O)C2CCCCC2)c2cc(OCCCO)ccc2N1C(=O)c1ccc2ccccc2n1")
1.72
>>> recordedvalue("CC(C)[C@@H](C(=O)O)n1cc(-c2ccccn2)nn1")
0.88
>>> recordedvalue("C=C(C(=O)CC[C@H](OC(C)=O)c1ccc(CO)o1)C(C)C")
0.468
>>> recordedvalue("C[N+](C)(C)CCCCNC(=O)[C@@H]1C[C@@H]2C(=O)NCC(=O)N2[C@@H]1c1cccc(OCCO)c1")
2.47
>>> recordedvalue("COc1ccc(C#Cc2ccc3c(c2)[C@]2(C(=O)N3)[C@H](c3ccc(O)cc3)N3[C@H](c4ccccc4)[C@H](c4ccccc4)OC(=O)[C@H]3[C@@H]2C(=O)N2CCN(c3ncccn3)CC2)cc1")
2.01
>>> recordedvalue("C=C(COC)/C(=C/C[C@H](OC(C)=O)c1cccc(OCCO)c1)c1cc(C(=O)OC)ccc1OC")
0.574
>>> recordedvalue("Cc1ccc(S[C@]2(C(=O)NC3CC3)CC(=O)N(Cc3ccccc3C(F)(F)F)[C@@H]2c2ccc(CO)cc2I)cc1")
1.1
>>> recordedvalue("COc1ccc([Si](C)(C)[C@@H]2[C@@H](CC(=O)N3CCC[C@H]3CO)O[C@]3(C(=O)N(Cc4ccc(N5CCC5=O)cc4)c4ccccc43)[C@H]2C)cc1")
2.12
>>> recordedvalue("C=CCN1C(=O)[C@@]2(O[C@@H](CCO)[C@H]([Si](C)(C)c3ccc(OC)cc3)[C@H]2C)c2cc(N3C(=O)c4cccc5cccc3c45)ccc21")
1.15
>>> recordedvalue("CCCCCN1CC=CC23O[C@@H]4/C=C\\CCC(C)OC(=O)C4[C@H]2C(=O)N(CCO)[C@@H]3C1=O (some centres not stated)")
1.45
>>> recordedvalue("O=C1O[C@H](c2ccccc2)[C@H](c2ccccc2)N2[C@H]1[C@@H](C(=O)Nc1nc3ccccc3s1)[C@]1(C(=O)Nc3ccc(C#CCCO)cc31)[C@H]2c1ccccc1OCCO")
2.85
>>> recordedvalue("COc1ccc([Si](C)(C)[C@H]2[C@H](CCO)O[C@@]3(C(=O)N(Cc4ccc(N5C(=O)c6cccc7cccc5c67)cc4)c4ccccc43)[C@@H]2C)cc1")
0.589
>>> recordedvalue("[N-]=[N+]=NCc1ccccc1C[C@]1(C(=O)NCc2ccccc2)N=C(c2ccc(OCCCO)cc2)O[C@H]1c1ccccc1")
2.47
>>> recordedvalue("CC(C)(C)OC(=O)CC[C@@]12N=C(c3ccc(OCCCO)cc3)O[C@@H]1c1ccccc1CN(Cc1ccccc1)C2=O")
2.49
>>> recordedvalue("CO[C@H]1O[C@H](CO)[C@@H](OC(=O)Nc2ccccc2)[C@H](OC(=O)Nc2ccc3c(c2)OCO3)[C@H]1OC(=O)Nc1ccc2c(c1)OCO2")
2.8
>>> recordedvalue("CCN(CC)c1ccc(N2CC=CC34O[C@@H]5C=CCOC(=O)[C@@H]5[C@H]3C(=O)N(C(C)CO)[C@@H]4C2=O)cc1 (some centres not stated)")
-0.151
